experiment-description: Marizomib blood pharmacokinetics (Part 1 Phase 1)
reported-conditions: human, whole blood, intravenous, 0.8 mg/m2
property-name: Tmax

item_smiles=C[C@@]12OC(=O)[C@]1([C@@H](O)[C@@H]1C=CCCC1)NC(=O)[C@@H]2CCCl observed_measurement="8 min"

###

experiment-description: Marizomib blood pharmacokinetics (Part 1 Phase 1)
reported-conditions: human, whole blood, intravenous, […]2
property-name: half-life

molecule="C[C@@]12OC(=O)[C@]1([C@@H](O)[C@@H]1C=CCCC1)NC(=O)[C@@H]2CCCl [MRZ, marizomib]" observed_measurement="8.2 min"

###

experiment-description: Marizomib blood pharmacokinetics (Part 1 Phase 1)
reported-conditions: human, whole blood, intravenous, 0.7 mg/m2
property-name: Tmax (min)

item_smiles=C[C@@]12OC(=O)[C@]1([C@@H](O)[C@@H]1C=CCCC1)NC(=O)[C@@H]2CCCl property_name=Tmax observed_measurement=21.3

###

experiment-description: Marizomib blood pharmacokinetics (Part 1 Phase 1)
reported-conditions: human, whole blood, intravenous, 0.7 mg/m2
property-name: Cmax (ng/mL)

compound="C[C@@]12OC(=O)[C@]1([C@@H](O)[C@@H]1C=CCCC1)NC(=O)[C@@H]2CCCl [MRZ, marizomib]" observed_measurement=64.9

###

experiment-description: Marizomib blood pharmacokinetics (Part 1 Phase 1)
reported-conditions: human, whole blood, intravenous, […]2
property-name: Tmax (min)

item_smiles=C[C@@]12OC(=O)[C@]1([C@@H](O)[C@@H]1C=CCCC1)NC(=O)[C@@H]2CCCl property_name=Tmax observed_measurement=15.5

###

experiment-description: Marizomib blood pharmacokinetics (Part 1 Phase 1)
reported-conditions: human, whole blood, intravenous, 0.7 mg/m2
property-name: half-life (min)

item_smiles=C[C@@]12OC(=O)[C@]1([C@@H](O)[C@@H]1C=CCCC1)NC(=O)[C@@H]2CCCl observed_measurement=16

###

experiment-description: Marizomib blood pharmacokinetics (Part 1 Phase 1)
reported-conditions: human, whole blood, intravenous, […]2
property-name: Vd (L)

item_smiles=C[C@@]12OC(=O)[C@]1([C@@H](O)[C@@H]1C=CCCC1)NC(=O)[C@@H]2CCCl property_name=Vd measurement_units=L observed_measurement=54.4

###

experiment-description: Marizomib blood pharmacokinetics (Part 1 Phase 1)
reported-conditions: human, whole blood, intravenous, 0.8 mg/m2
property-name: half-life (min)

compound="C[C@@]12OC(=O)[C@]1([C@@H](O)[C@@H]1C=CCCC1)NC(=O)[C@@H]2CCCl [MRZ, marizomib]" observed_measurement=7.27

###

experiment-description: Marizomib blood pharmacokinetics (Part 1 Phase 1)
reported-conditions: human, whole blood, intravenous, 0.8 mg/m2
property-name: Vd (L)

item_smiles=C[C@@]12OC(=O)[C@]1([C@@H](O)[C@@H]1C=CCCC1)NC(=O)[C@@H]2CCCl observed_measurement=55

###

experiment-description: Marizomib blood pharmacokinetics (Part 1 Phase 1)
reported-conditions: human, whole blood, intravenous, 0.7 mg/m2
property-name: AUC(0-t) (ng·h/mL)

item_smiles=C[C@@]12OC(=O)[C@]1([C@@H](O)[C@@H]1C=CCCC1)NC(=O)[C@@H]2CCCl measurement_units=ng·h/mL observed_measurement=3.22
